# System: 80kDa SH
# Test Description: serine hydrolase inhibition in mouse brain membranes, late-stage follow-up, selectivity assay for DAGLb inhibitor project, biochemical, gel-based competitive ABPP, fluorescence, set 2 (AID 602323)
# Assay Setup: mouse brain membrane, at 1 µM
Calls of active or inactive are those of the source. How the calls were made is not given here.
// allowed return values: active, inactive

Some solved entries appear below for comparison.
{"Molecule": "O=C(N1CCCCC1Cc1ccccc1)n1cc(-c2ccc(-c3ccccc3OC(F)(F)F)cc2)nn1 (centres undefined)", "Label Value": "inactive"}
{"Molecule": "O=C(N1CCCCC1Cc1ccccc1)n1cc(-c2ccc(-c3ccccc3CO)cc2)nn1 (centres undefined)", "Label Value": "inactive"}
{"Molecule": "O=C(N1CCCCC1Cc1ccccc1)n1cc(-c2cc(F)cc(F)c2)nn1 (centres undefined)", "Label Value": "active"}

Request: // outcome(item) with item = O=C(N1CCCCC1Cc1ccccc1)n1cc(-c2ccc(-c3ccc(OC(F)(F)F)cc3)cc2)nn1 (centres undefined)
Response: inactive

Request: // outcome(item) with item = `CC(C)(C)OC(=O)NCCCCCN(CCc1ccccc1)C(=O)n1cc(-c2ccc(OC(F)(F)F)cc2)nn1`
Response: active

Request: // outcome(item) with item = O=C(c1ccc(-c2ccc(-c3cn(C(=O)N4CCCCC4Cc4ccccc4)nn3)cc2)cc1)N1CCCCC1 (centres undefined)
Response: inactive

Request: // outcome(item) with item = `CC(C)CN(CCc1ccccc1)C(=O)n1cc(-c2ccc(OC(F)(F)F)cc2)nn1`
Response: active

Request: // outcome(item) with item = O=C(N1CCCCC1Cc1ccccc1)n1cc(-c2ccc(Br)cc2)nn1 (centres undefined)
Response: active

Request: // outcome(item) with item = O=C(N1CCCCC1Cc1ccccc1)n1cc(-c2ccc(-c3ccc(C(F)(F)F)cc3)cc2)nn1 (centres undefined)
Response: inactive
